Data origin: patent US20180050993A1

Target: EPHA6 (Homo sapiens)
Sequence (Q9UF33 23-1036): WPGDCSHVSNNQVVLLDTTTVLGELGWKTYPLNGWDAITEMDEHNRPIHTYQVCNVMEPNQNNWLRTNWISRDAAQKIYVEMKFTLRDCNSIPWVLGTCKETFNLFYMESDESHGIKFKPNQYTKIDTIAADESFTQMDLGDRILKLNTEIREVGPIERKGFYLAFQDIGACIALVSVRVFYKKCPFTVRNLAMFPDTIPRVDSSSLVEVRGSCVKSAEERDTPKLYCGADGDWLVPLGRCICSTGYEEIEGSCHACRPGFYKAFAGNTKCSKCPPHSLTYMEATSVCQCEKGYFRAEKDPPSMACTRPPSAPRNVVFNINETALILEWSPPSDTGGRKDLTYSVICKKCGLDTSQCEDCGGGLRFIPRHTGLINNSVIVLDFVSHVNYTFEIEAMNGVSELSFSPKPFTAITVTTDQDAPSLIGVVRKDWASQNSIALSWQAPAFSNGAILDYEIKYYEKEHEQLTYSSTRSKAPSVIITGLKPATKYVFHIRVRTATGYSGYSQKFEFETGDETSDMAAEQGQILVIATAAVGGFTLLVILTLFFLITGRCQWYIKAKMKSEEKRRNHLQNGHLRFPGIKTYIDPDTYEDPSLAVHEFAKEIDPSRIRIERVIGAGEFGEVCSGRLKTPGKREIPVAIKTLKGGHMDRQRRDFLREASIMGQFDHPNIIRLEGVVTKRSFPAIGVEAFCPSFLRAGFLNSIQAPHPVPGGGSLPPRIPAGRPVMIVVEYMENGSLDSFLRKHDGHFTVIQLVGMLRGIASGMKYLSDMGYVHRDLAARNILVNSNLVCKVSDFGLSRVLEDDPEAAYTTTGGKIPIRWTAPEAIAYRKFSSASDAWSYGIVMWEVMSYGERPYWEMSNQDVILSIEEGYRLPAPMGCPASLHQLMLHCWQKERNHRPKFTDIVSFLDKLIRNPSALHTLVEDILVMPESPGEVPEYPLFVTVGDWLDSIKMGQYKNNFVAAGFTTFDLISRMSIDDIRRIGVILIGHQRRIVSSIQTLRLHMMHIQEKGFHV
Where a name gives a salt, the structure may show the parent alone.
Kindly supply the reported pKd values for the records listed here.
Answers are plain numbers, as −log10 of the molar value.

{"Compound": "Fc1ccc(Nc2ncnc3cc(OCCOC(F)F)c(OCCOC(F)F)cc23)c(F)c1Cl [Compound 2D•HCl]", "pKd": 8.60}

// next item, pKd requested
Fc1c(Nc2ncnc3cc(OCCOC(F)F)c(OCCOC(F)F)cc23)ccc(Cl)c1Cl [Compound 2A•HCl] has a reported pKd of 8.04
